TARGET_OR_TEST_SYSTEM: ATP-dependent translocase ABCB1 (Homo sapiens, UniProt P08183)
Sequence (P08183 whole entry): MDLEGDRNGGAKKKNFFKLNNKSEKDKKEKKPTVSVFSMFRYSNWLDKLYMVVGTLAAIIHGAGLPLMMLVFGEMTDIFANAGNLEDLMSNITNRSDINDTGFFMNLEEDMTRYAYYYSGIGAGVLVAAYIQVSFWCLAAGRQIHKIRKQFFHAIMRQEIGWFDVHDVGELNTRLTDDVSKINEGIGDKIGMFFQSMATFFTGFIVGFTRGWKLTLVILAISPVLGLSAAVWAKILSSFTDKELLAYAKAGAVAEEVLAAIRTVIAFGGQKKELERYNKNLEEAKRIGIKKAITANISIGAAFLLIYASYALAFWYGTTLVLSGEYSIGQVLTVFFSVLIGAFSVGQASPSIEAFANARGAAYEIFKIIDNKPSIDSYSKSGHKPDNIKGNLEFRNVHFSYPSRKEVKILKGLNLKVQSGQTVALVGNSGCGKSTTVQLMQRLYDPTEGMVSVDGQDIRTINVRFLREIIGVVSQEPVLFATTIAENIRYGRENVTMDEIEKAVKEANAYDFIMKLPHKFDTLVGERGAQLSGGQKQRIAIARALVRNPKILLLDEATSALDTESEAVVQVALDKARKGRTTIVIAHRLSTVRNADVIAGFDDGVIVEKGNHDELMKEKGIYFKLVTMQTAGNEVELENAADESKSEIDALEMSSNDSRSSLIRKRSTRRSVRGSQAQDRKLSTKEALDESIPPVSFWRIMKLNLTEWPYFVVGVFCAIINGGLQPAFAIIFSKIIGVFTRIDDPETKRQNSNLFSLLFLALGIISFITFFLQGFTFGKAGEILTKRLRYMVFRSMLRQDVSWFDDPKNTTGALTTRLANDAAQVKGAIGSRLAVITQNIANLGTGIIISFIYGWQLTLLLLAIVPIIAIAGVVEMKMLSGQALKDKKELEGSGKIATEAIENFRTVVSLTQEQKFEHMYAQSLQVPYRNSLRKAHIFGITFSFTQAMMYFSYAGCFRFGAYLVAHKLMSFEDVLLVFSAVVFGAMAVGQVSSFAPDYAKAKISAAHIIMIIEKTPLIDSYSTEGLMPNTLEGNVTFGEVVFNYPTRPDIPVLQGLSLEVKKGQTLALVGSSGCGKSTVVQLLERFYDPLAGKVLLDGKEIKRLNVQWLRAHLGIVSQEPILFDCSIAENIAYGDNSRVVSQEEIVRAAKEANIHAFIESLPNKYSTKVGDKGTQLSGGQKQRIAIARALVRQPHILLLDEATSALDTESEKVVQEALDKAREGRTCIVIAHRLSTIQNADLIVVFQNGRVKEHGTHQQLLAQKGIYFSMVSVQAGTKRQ
PROTOCOL_TEXT: Inhibition of p-glycoprotein in Homo sapiens (human) K562/A02 cells assessed as reduction of adriamycin IC50 for cytotoxic effect at IC10 treated 12 hr before adriamycin challenge measured after 24 to 72 hr by MTT assay
Format: cell-based
fold change (FC) values, listed per item

Here's what some known entries look like.
COC(=O)[C@@H]1C[C@@H](O)CN1C(=O)Cn1c(=O)c(C)nc2ccccc21    4.82
Cc1ccccc1NC(=O)Cn1c(=O)c(C)nc2ccccc21    4.01
Cc1nc2ccccc2n(CC(=O)Nc2ccc(F)c(Cl)c2)c1=O    1.83
COC(=O)[C@H](Cc1ccccc1)NC(=O)Cn1c(=O)c(C)nc2cc(OC)c(OC)cc21    1.82
Cc1nc2ccccc2n(CC(=O)Nc2ccc(Br)cc2)c1=O    1.24
COC(=O)[C@H](Cc1ccccc1)NC(=O)Cn1c(=O)c(C)nc2cc(F)c(F)cc21    1.05
Cc1nc2ccccc2n(CC(=O)Nc2ccccc2)c1=O    2.45
COc1cc2nc(C)c(=O)n(CC(=O)Nc3ccccc3)c2cc1OC    4.59
Cc1nc2ccccc2n(CC(=O)Nc2ccc(Cl)c(Cl)c2)c1=O    1.62

Consider the record given below.
### Prompt Tell me the measured fold change (FC) of `COC(=O)[C@H](Cc1ccccc1)NC(=O)Cn1c(=O)c(C)nc2ccccc21` , please.
### Response 2.01

---

PROTOCOL_TEXT: Cytotoxicity against Homo sapiens (human) K562/A02 cells after 24 to 72 hr by MTT assay
Format: cell-based
IC10 below 3 µM gives label 0; IC10 at or above it gives label 1.

Some entries whose results are on file:
Cc1nc2ccccc2n(CC(=O)Nc2ccc(Cl)c(Cl)c2)c1=O    label 0
CCOC(=O)Cn1c(=O)c(C)nc2ccccc21    label 1

### Prompt Does IC10 meet or surpass 3 µM for `COC(=O)[C@H](Cc1ccccc1)NC(=O)Cn1c(=O)c(C)nc2ccccc21` ?
### Response label 1

### Prompt Check if IC10 >= 3 µM (inclusive). Item: `Cc1ccccc1NC(=O)Cn1c(=O)c(C)nc2ccccc21`
### Response label 0

### Prompt Decide: IC10 of `Cc1nc2ccccc2n(CC(=O)Nc2ccccc2)c1=O` >= 3 µM?
### Response label 1

### Prompt Is reported IC10 greater than or equal to 3 µM here: `COC(=O)[C@H](Cc1ccccc1)NC(=O)Cn1c(=O)c(C)nc2cc(F)c(F)cc21`
### Response label 0

### Prompt Tell me whether IC10 is at least 3 µM here: `COC(=O)[C@H](Cc1ccccc1)NC(=O)Cn1c(=O)c(C)nc2cc(OC)c(OC)cc21`
### Response label 1

### Prompt API: above_or_equal(metric=IC10, cutoff=3 µM) for item `Cc1nc2ccccc2n(CC(=O)Nc2ccc(F)c(F)c2)c1=O`
### Response label 0
